Ref: patent US20230365590A1

- Experimental System: CD80/PD-L1 binding (recombinant human His-CD80 protein and PD-L1-Fc fusion protein) (Homo sapiens (Human))
- Sequence (Q9NZQ7 19-239): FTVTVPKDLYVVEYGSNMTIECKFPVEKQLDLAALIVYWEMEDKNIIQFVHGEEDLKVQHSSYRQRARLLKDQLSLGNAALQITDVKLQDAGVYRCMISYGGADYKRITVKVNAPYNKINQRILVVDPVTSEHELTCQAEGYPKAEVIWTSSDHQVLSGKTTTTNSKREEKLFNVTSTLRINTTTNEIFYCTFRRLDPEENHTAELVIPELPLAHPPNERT
- Assay Procedure: In vitro inhibitory activity against CD80/PD-L1 binding (HTRF)
- Reported Conditions: read-out: IC50 for inhibiting CD80/PD-L1 binding in vitro
Assay Metric: IC50 (nM)
Entry rule: numbers only, all in nM.

The examples below pair each entry with its known result.
{"columns": ["Compound", "Unit Text", "IC50"],
 "data": [
  ["COCC12CCC(CCCN3CCc4c(nc(C(=O)Nc5cccc(-c6cccc(NC(=O)c7nc8c(n7C)CCN(CCC79CCC(C(=O)O)(CC7)C9)C8)c6Cl)c5C)n4C)C3)(CC1)C2 [Compound I-2]", "nM", 0.79],
  ["CCOCC12CCC(CCN3CCc4c(nc(C(=O)Nc5cccc(-c6cccc(NC(=O)c7nc8c(n7C)CCN(CCC79CCC(C(=O)O)(CC7)C9)C8)c6C)c5Cl)n4C)C3)(CC1)C2 [Compound I-3]", "nM", 0.96]
]}

Would you kindly look at the next entry?
Measured IC50 of COCC12CCC(CCN3CCc4c(nc(C(=O)Nc5cccc(-c6cccc(NC(=O)c7nc8c(n7C)CCN(CCC79CCC(C(=O)O)(CC7)C9)C8)c6C)c5Cl)n4C)C3)(CC1)C2 [Compound I-4] : 2.78
